# IC50 per record follows
# Test system: SNU81
# assay-procedure: Colony formation (CFU) assay
# Type: cell-based
# experimental-conditions: SNU81, colon
Provide only the numeric value, understood in µM.

IC50 lookup needed for NC(=O)c1cccc2cn(-c3ccc([C@@H]4CCCNC4)cc3)nc12 [Niraparib, niraparib, reference compound] , thanks.
0.0186

IC50 lookup needed for `COc1ncnc(C2CC2)c1-c1ncc2cnn(Cc3ccc(-c4nc(C(F)(F)F)cn4C)cc3)c2n1` , thanks.
0.0102

----------
# Test system: NCIH1373
# assay-procedure: Colony formation (CFU) assay
# Assay type: cell-based
# experimental-conditions: Homo sapiens, NCI-H1373; NCIH1373, lung
quantity-measured: IC50

molecule: COc1ncnc(C2CC2)c1-c1ncc2cnn(Cc3ccc(-c4nc(C(F)(F)F)cn4C)cc3)c2n1
quantity-measured: IC50
experimental-result: > 300 nM

Next molecule, IC50 to be filled in.
IC50 lookup needed for NC(=O)c1cccc2cn(-c3ccc([C@@H]4CCCNC4)cc3)nc12 [Niraparib, niraparib, reference compound] , thanks.
> 300 nM

----------
# Tested on: AN3CA
# assay-procedure: Colony formation (CFU) assay
# Format: cell-based
# experimental-conditions: Homo sapiens, AN3-CA, uterus
quantity-measured: pIC50
// field semantics: pIC50 = negative decimal log of concentration (mol/L)

pIC50 lookup needed for NC(=O)c1cccc2cn(-c3ccc([C@@H]4CCCNC4)cc3)nc12 [Niraparib, niraparib, reference compound] , thanks.
7.00

----------
# Tested on: HCC1395
# assay-procedure: Colony formation (CFU) assay
# Format: cell-based
# experimental-conditions: Homo sapiens; HCC1395, breast
quantity-measured: pIC50
// field semantics: pIC50 = negative decimal log of concentration (mol/L)

pIC50 lookup needed for NC(=O)c1cccc2cn(-c3ccc([C@@H]4CCCNC4)cc3)nc12 [Niraparib, niraparib, reference compound] , thanks.
8.08

----------
# pIC50 per record follows
# Test system: 8305C
# assay-procedure: Colony formation (CFU) assay
# Type: cell-based
# experimental-conditions: Homo sapiens, thyroid
pIC50: −log10 of the molar value.

compound: NC(=O)c1cccc2cn(-c3ccc([C@@H]4CCCNC4)cc3)nc12 [Niraparib, niraparib, reference compound]
experimental-result: < 6.52

Next compound, pIC50 to be filled in.
Request: pIC50, test system 8305C, entry `COc1ncnc(C2CC2)c1-c1ncc2cnn(Cc3ccc(-c4nc(C(F)(F)F)cn4C)cc3)c2n1`
< 6.52

----------
# Test system: DMS53
# assay-procedure: Colony formation (CFU) assay
# Type: cell-based
# experimental-conditions: Homo sapiens, DMS-53; DMS53, lung
# IC50 per record follows

compound: NC(=O)c1cccc2cn(-c3ccc([C@@H]4CCCNC4)cc3)nc12 [Niraparib, niraparib, reference compound]
quantity-measured: IC50
experimental-result: 168 nM

IC50 lookup needed for COc1ncnc(C2CC2)c1-c1ncc2cnn(Cc3ccc(-c4nc(C(F)(F)F)cn4C)cc3)c2n1 [Formula II] , thanks.
> 300 nM

----------
# IC50 per record follows
# Test system: UBLC1
# assay-procedure: Colony formation (CFU) assay
# Assay type: cell-based
# experimental-conditions: UBLC1, bladder

molecule: COc1ncnc(C2CC2)c1-c1ncc2cnn(Cc3ccc(-c4nc(C(F)(F)F)cn4C)cc3)c2n1
target-under-test: UBLC1
IC50: > 300 nM

Next molecule, IC50 to be filled in.
IC50 lookup needed for NC(=O)c1cccc2cn(-c3ccc([C@@H]4CCCNC4)cc3)nc12 [Niraparib, niraparib, reference compound] , thanks.
> 300 nM

----------
# Tested on: SN12C
# assay-procedure: Colony formation (CFU) assay
# Format: cell-based
# experimental-conditions: Homo sapiens, kidney
quantity-measured: IC50 (nM)
Provide only the numeric value, understood in nM.

IC50 lookup needed for `COc1ncnc(C2CC2)c1-c1ncc2cnn(Cc3ccc(-c4nc(C(F)(F)F)cn4C)cc3)c2n1` , thanks.
64.7

----------
# pIC50 per record follows
# System: CCK81
# assay-procedure: Colony formation (CFU) assay
# Assay type: cell-based
# experimental-conditions: CCK81, colon
# Procedure: In vitro experiments were conducted using the colony formation unit (CFU) assay on various cell lines. […] The plates were imaged then the amount of crystal violet stain in each well was quantified by extracting the crystal violet into 10% acetic acid and the absorbance measured at 565 nm. IC50 values were calculated by fitting a two-parameter hill equation to the dose-response measurements. […] Bliss synergy scores were calculated using the synergyfinder R package version 1.6.1.
pIC50: −log10 of the molar value.

compound: NC(=O)c1cccc2cn(-c3ccc([C@@H]4CCCNC4)cc3)nc12 [Niraparib, niraparib, reference compound]
target-under-test: CCK81
pIC50: < 6.52

Next compound, pIC50 to be filled in.
pIC50 lookup needed for COc1ncnc(C2CC2)c1-c1ncc2cnn(Cc3ccc(-c4nc(C(F)(F)F)cn4C)cc3)c2n1 [Formula II] , thanks.
< 6.52

----------
# pIC50 per record follows
# System: NCIH1573
# assay-procedure: Colony formation (CFU) assay
# Type: cell-based
# experimental-conditions: Homo sapiens, NCI-H1573; NCIH1573, lung
// field semantics: pIC50 = negative decimal log of concentration (mol/L)

compound: NC(=O)c1cccc2cn(-c3ccc([C@@H]4CCCNC4)cc3)nc12 [Niraparib, niraparib, reference compound]
pIC50: 7.82

pIC50 lookup needed for `COc1ncnc(C2CC2)c1-c1ncc2cnn(Cc3ccc(-c4nc(C(F)(F)F)cn4C)cc3)c2n1` , thanks.
6.64

----------
# Tested on: SKOV3_BRCA1null
# assay-procedure: Colony formation (CFU) assay
# Format: cell-based
# experimental-conditions: ovary
quantity-measured: pIC50
// field semantics: pIC50 = negative decimal log of concentration (mol/L)

pIC50 lookup needed for NC(=O)c1cccc2cn(-c3ccc([C@@H]4CCCNC4)cc3)nc12 [Niraparib, niraparib, reference compound] , thanks.
6.58
